Exercise: for every item that follows, state its recorded TGI.
system: SK-MEL-2 melanoma; assay: NCI tumour cell line growth inhibition, 48 h
Where a SMILES comes first, the peptide text is derived from it. [ ]: non-standard residue; d: D form. The star is where a group is joined. X28 = COC1=CC(=O)N(C(=O)[C@@H](O*)C(C)C)[C@H]1Cc1ccccc1; NMeL = CN[C@@H](CC(C)C)C(=O)O; Hexanoyl = CCCCCC(=O)*

// solved cases for TGI follow
| Compound | Target | Readout Value |
| --- | --- | --- |
| Cc1ccc(Nc2ncnc3sc(SCc4ccccc4)nc23)cc1 | SK-MEL-2 melanoma | > 100 µM |
| COc1ccc(N=NN2CCCC2)cc1 | SK-MEL-2 melanoma | > 100 µM |
| CCOC(=O)c1c(NC(=S)NCc2ccccc2)sc2c1CCN(C)C2 | SK-MEL-2 melanoma | > 100 µM |

// each compound listed below needs its TGI
1. CCCCCC(=O)N[C@H](C(=O)N[C@H](C(=O)N(C)[C@@H](CC(C)C)C(=O)N1CCC[C@H]1C(=O)N1CCC[C@H]1C(=O)O[C@H](C(=O)N1C(=O)C=C(OC)[C@@H]1Cc1ccccc1)C(C)C)C(C)C)C(C)C (Hexanoyl-VV[NMeL]PP-X28)
2. COC(=O)c1nc2c(C)c(O)c(O)c([C@H](C)CCC=C(C)C)c2o1
3. Cc1cn2c(/C=C3/C(=O)Nc4ccccc43)c(-c3ccccc3)nc2s1
4. O=C(/C=N/O)c1c(-c2ccccc2)[nH]c(-c2ccccc2)c1-c1ccccc1
5. COC(=O)c1oc2c(C(=O)/C=C/c3ccc(OC)cc3)c(OCCCN3CCCCC3)ccc2c1C

Ans:
> 100 µM
59.7 µM
78.1 µM
24 µM
7.65 µM

---

Exercise: for every item that follows, state its recorded TGI.
test system: A498 renal; experiment: NCI tumour cell line growth inhibition, 48 h
Where a SMILES comes first, the peptide text is derived from it. [ ]: non-standard residue; d: D form. The star is where a group is joined. X28 = COC1=CC(=O)N(C(=O)[C@@H](O*)C(C)C)[C@H]1Cc1ccccc1; NMeL = CN[C@@H](CC(C)C)C(=O)O; Hexanoyl = CCCCCC(=O)*

| Molecule | Readout Value |
| --- | --- |
| COC(=O)c1ccc2c(c1)nc(-c1ccc(Cl)cc1)n2-c1cc(C(C)(C)C)[nH]n1 | 9.76 µM |
| CCCCCC(=O)N[C@H](C(=O)N[C@H](C(=O)N(C)[C@@H](CC(C)C)C(=O)N1CCC[C@H]1C(=O)N1CCC[C@H]1C(=O)O[C@H](C(=O)N1C(=O)C=C(OC)[C@@H]1Cc1ccccc1)C(C)C)C(C)C)C(C)C (Hexanoyl-VV[NMeL]PP-X28) | > 100 µM |
| COc1ccc(/C=C(/C(=O)N2CCNCC2)c2cc(OC)c(OC)c(OC)c2)cc1O | 7.33 µM |

Could you now consider this next molecule?
Q: Would you kindly share the measured TGI for Cc1ccc(Nc2ncnc3sc(SCc4ccccc4)nc23)cc1 ?
Ans: > 100 µM

---

test system: UO-31 renal; assay: NCI tumour cell line growth inhibition, 48 h
Exercise: for every item that follows, state its recorded TGI.
Give bare numbers, in µM.

// solved cases for TGI follow
| Compound | Measured Attribute | Readout Unit | Readout Value |
| --- | --- | --- | --- |
| N#Cc1c2ccccc2c2nnc3cc(Cl)c(Cl)cc3n12 | TGI | µM | 65.8 |
| COC(=O)c1ccc(/C=C/C2=CC(=O)C=CC2=O)cc1 | TGI | µM | 17.9 |
| COC(=O)c1c(C)nc(C)c(N=O)c1-c1ccccc1C(F)(F)F | TGI | µM | 37.1 |
| COc1ccc(-n2c(N)c(C(=O)NCCN3CCOCC3)c3nc4ccccc4nc32)cc1OC | TGI | µM | 62.1 |

// each compound listed below needs its TGI
1. CC1(c2cccc(C3CCC4(C=CC3=O)OCCO4)c2)OCCO1 (stereo not drawn)
2. O=C(/C=N/O)c1c(-c2ccccc2)[nH]c(-c2ccccc2)c1-c1ccccc1

Ans:
1: 12.7; 2: 36.3

src = PubChem BioAssay (NCI)
